These data points were gathered from patent US20260209316A1.

biological target: T1, mucin domain-deleted Sudan GP (GPdMuc) (Sudan virus (SUDV), UniProt Q7T9D9 33-632); assay: BLI competition on Sudan GPdMuc (upper table); competitor mAb166
T1 construct: also called Sudan GPdMuc; GP(S)dMuc
READOUT TYPE: % inhibition of binding (%)
Numbers only; they are read as %.

Below, 2 binders whose answers are already recorded.
binder="antibody 203S (antibody, V domains shown) VH: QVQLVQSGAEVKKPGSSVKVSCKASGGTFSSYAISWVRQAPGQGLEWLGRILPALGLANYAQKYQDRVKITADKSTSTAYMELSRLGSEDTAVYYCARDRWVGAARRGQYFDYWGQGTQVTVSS VL: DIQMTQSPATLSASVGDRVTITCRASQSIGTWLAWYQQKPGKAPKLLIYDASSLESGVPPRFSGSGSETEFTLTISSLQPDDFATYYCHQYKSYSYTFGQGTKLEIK" readout_type="% inhibition of binding" unit_of_measurement=% recorded_result=87.5
binder="antibody 338S (antibody, V domains shown) VH: EVQLVESGGGVVQPGRSLRLSCAASGFTFSQYGMHWVRQAPGKGLECVAVIWFDGSKKYYGDSVKGRFTISRDNSKNTLYLQMNSLRAEDTAVYFCARESLYYYDSGGHYYERGRIDYWGQGTLVTVSS VL: DIQMTQSPSSLSASVGDRVTITCRASQDISNFLAWFQQKPGKAPKSLIYAASSLLSGVPSKFSGSGSGTDFTLTISSLQPEDFATYYCQQYNSYPPTFGQGTKLEIK" readout_type="% inhibition of binding" unit_of_measurement=% recorded_result=-6.27

// next entry
## Input Return reported % inhibition of binding; argument: antibody 377S (antibody, V domains shown) VH: QVQLVQSGAEVKKPGSSVKVSCKASGGTFSNYAINWVRQAPGQGLEWMGRTIPFLGLTNYAENFQARVTITADKSTGTSYMQLSSLRSEDTAVYFCAKAATSGWSPFDNWGQGTLVTVSS VL: EIVLTQSPGTLSLSPGERATLSCRASQSISSSYFGWYQQKPGQAPRLLIYGASRRAAGIPDRFSCSGSGTDFTLTISRLEPEDFGVYYCQQYGSSPTFGQGTKVEIK
## Output 83.8
